Reference source for all entries: paper PMC4644816

System: SCC15 cells
Assay text: MTT cytotoxic assay, SCC15
Type: cell-based
Condition info: 24 h
pIC50: −log10 of the molar value. Where no end group is shown, it is not given here.
Documented pIC50 across a set of substances

[[record]]
substance = "RRWQWR-NH2 (C-terminus assumed) [LfcinB(20–25)]"
result = "< 3.99"


--- query ---
The recorded pIC50 with SCC15 cells for RWQWRWQWR-NH2 (C-terminus assumed) [LfcinB-Pal] was < 4.17

----------
Documented pIC50 across a set of substances
Tested on: SCC15 cells
Assay text: MTT cytotoxic assay, SCC15
Format: cell-based
Condition info: 1 h
Protocol: The cell lines CAL27 (ATCC CRL-2095) and SCC15 (ATCC CRL-1623) and the human immortalized nontumorigenic epithelial esophagus cell line Het-1A (ATCC CRL-2692) were purchased from ATCC (Manassas, VA). CAL27 cells were cultured in Dulbecco's Modified Eagle's Medium (DMEM; Gibco) with 10% of fetal bovine serum (FBS; Gibco). […] Cytotoxic activity was determined using the MTT assay. […] After 10 min of incubation at 37°C, absorbance was measured at 550 nm. […]
pIC50: −log10 of the molar value. Where no end group is shown, it is not given here.

[[record]]
substance = "RRWQWR-NH2 (C-terminus assumed) [LfcinB(20–25)]"
metric = "pIC50"
result = "< 3.99"


--- query ---
Record summary for RWQWRWQWR-NH2 (C-terminus assumed) [LfcinB-Pal] : reported pIC50 = < 4.17
